Below, each entry is listed alongside its reported thermal shift delta Tm.
- System: LOC_OS04G41100-cb001;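 also: purified Escherichia coli-expressed rice kinase domain construct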
- Sequence (as listed by the source): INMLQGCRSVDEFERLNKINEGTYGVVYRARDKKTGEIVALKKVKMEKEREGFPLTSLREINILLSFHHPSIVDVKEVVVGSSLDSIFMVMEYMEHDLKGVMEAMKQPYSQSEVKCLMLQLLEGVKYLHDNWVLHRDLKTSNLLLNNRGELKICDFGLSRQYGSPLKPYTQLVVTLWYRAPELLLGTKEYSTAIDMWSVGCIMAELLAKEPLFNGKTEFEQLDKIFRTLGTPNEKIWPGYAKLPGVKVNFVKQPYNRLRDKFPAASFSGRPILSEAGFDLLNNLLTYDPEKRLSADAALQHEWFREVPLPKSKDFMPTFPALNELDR
- Test summary: thermal shift delta Tm vs DMSO control; higher = stronger stabilization (binding)
- Study conditions: 12.5 µM; protein concentration 2 µM
Reported metric: thermal shift delta Tm (°C)

Cc1cc(F)c(Nc2ncnc3cc(OCc4ccccc4)ccc23)cc1O: -0.11
C=CC(=O)N1CC[C@@H](Oc2nc(Nc3ccc(N4CCC(N5CCN(C)CC5)CC4)cc3)c(C(N)=O)nc2CC)C1 [Naquotinib(ASP8273)]: 0.5
CC(C)(O)CNc1ncc(-c2ccnc(Nc3ccnc(Cl)c3)n2)c(CC2CC2)n1: 0.65
COCCOc1cnc2ccn([C@H](C)c3nnc4c(F)cc(-c5cnn(C)c5)cn34)c(=O)c2c1: 0.65
Nc1ncnc2c1c(-c1cnc3[nH]ccc3c1)nn2C1CCCC1: 0.51
CCNC(=O)C#Cc1ccc2c(C(=Nc3ccc(CN(C)C)cc3)c3ccccc3)c(O)[nH]c2c1: 4.14
CCc1nc(-c2cccc(C)c2)c(-c2ccnc(NC(=O)c3ccccc3)c2)s1: 0.61
CCNC(=O)Nc1ccc(-c2nc(N3CCOC[C@@H]3C)c3c(n2)C(C)(C)S(=O)(=O)C3)cc1: 0.2
CCOc1cc2ncc(C#N)c(Nc3ccc(F)c(Cl)c3)c2cc1NC(=O)/C=C/CN(C)C [Pelitinib (EKB-569)]: 0.56
